target or test system: Alpha-1A adrenergic receptor (Rattus norvegicus)
Sequence (P43140 whole entry): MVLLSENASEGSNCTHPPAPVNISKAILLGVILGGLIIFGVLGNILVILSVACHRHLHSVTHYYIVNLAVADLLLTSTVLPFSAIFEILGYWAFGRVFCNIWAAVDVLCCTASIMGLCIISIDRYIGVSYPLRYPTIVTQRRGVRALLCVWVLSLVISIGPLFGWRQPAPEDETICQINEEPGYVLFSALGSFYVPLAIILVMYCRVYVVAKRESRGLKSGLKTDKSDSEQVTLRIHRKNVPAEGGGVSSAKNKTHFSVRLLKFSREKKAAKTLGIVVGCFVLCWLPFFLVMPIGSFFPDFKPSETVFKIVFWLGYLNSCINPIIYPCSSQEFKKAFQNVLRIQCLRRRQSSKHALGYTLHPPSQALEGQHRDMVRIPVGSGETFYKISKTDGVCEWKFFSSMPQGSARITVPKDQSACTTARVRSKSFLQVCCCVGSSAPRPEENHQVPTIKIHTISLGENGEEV
assay explanation: In vitro binding affinity against Alpha-1A adrenergic receptor in isolated prostate tissue of rat
pKi: −log10 of the molar value.
property name: pKi

CCC1=C(C(N)=O)C(c2ccc([N+](=O)[O-])cc2)N(C(=O)NCCCN2CCC(C(=O)OC)(c3ccccc3)CC2)C(=O)N1 (stereo unspecified) : 9.24

----------
target or test system: Alpha-1B adrenergic receptor (Homo sapiens, UniProt P35368)
Sequence (P35368 whole entry): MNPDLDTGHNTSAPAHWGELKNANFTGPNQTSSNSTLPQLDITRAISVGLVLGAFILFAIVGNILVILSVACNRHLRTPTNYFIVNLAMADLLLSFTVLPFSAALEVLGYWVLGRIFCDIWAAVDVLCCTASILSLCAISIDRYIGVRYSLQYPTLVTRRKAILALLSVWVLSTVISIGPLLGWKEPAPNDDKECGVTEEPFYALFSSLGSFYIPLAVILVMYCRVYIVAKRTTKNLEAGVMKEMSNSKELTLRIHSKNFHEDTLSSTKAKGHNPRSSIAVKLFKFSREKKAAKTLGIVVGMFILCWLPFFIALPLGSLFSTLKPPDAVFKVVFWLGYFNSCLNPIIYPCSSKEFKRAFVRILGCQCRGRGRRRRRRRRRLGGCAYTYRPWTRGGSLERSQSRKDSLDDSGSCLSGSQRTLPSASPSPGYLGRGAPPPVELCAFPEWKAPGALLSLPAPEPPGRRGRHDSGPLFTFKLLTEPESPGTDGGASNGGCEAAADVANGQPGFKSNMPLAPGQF
property name: Ki

COC(=O)C1=C(C)NC(=O)N(C(=O)NCCCN2CCC(C(=O)OC)(c3ccccc3)CC2)C1c1ccc(Cl)cc1 (stereo not drawn) : 48 nM
COC(=O)C1=C(C)NC(=O)N(C(=O)NCCCN2CCC(C(=O)OC)(c3ccccc3)CC2)C1c1cccc(C)c1 (stereo not drawn) : 110 nM
COC(=O)C1=C(C)NC(=O)N(C(=O)NCCCN2CCC(C(=O)OC)(c3ccccc3)CC2)C1c1cccc(Cl)c1 (stereo not drawn) : 50 nM
COC(=O)C1(c2ccccc2)CCN(CCCNC(=O)N2C(=O)NC(C)=C(C(N)=O)C2c2ccc([N+](=O)[O-])cc2)CC1 (stereo not drawn) : 100 nM
CCC1=C(C(=O)OC)C(c2ccc([N+](=O)[O-])cc2)N(C(=O)NCCCN2CCC(C(=O)OC)(c3ccccc3)CC2)C(=O)N1 (stereo not drawn) : 37 nM
CCC1=C(C(N)=O)C(c2ccc(F)cc2F)N(C(=O)NCCCN2CCC(C(=O)OC)(c3ccccc3)CC2)C(=O)N1 (stereo not drawn) : 340 nM
CCC1=C(C(=O)NC)C(c2ccc([N+](=O)[O-])cc2)N(C(=O)NCCCN2CCC(C(=O)OC)(c3ccccc3)CC2)C(=O)N1 (stereo not drawn) : 139 nM
COC(=O)C1=C(C)NC(=O)N(C(=O)NCCCN2CCC(C(=O)OC)(c3ccccc3)CC2)C1c1cccc(F)c1 (stereo not drawn) : 67 nM

----------
target or test system: Alpha-1D adrenergic receptor (Homo sapiens, UniProt P25100)
Sequence (P25100 whole entry): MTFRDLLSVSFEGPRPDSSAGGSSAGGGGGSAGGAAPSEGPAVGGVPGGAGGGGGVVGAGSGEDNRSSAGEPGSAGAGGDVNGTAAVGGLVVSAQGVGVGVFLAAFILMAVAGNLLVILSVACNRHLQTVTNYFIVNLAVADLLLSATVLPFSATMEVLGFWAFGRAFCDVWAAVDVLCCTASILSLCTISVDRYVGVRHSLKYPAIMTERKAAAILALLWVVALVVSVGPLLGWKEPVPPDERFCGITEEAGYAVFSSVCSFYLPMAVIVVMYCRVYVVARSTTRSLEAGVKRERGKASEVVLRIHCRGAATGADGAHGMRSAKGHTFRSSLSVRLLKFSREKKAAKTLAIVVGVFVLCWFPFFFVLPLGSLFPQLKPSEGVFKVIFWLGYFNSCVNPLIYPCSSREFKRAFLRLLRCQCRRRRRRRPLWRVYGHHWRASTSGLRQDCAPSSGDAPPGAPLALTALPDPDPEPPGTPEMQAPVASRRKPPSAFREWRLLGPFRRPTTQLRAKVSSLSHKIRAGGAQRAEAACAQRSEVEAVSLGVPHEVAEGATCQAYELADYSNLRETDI
property name: Ki (µM)

CNC(=O)C1=C(C)NC(=O)N(C(=O)NCCCN2CCC(C(=O)OC)(c3ccccc3)CC2)C1c1ccc([N+](=O)[O-])cc1 (stereo not given) : 0.27
COC(=O)C1=C(C)NC(=O)N(C(=O)NCCCN2CCC(C(=O)OC)(c3ccccc3)CC2)C1c1cccc(C)c1 (stereo not given) : 0.32
CCC1=C(C(N)=O)C(c2ccc(F)cc2F)N(C(=O)NCCCN2CCC(C(=O)OC)(c3ccccc3)CC2)C(=O)N1 (stereo not given) : 0.44
COC(=O)C1=C(C)NC(=O)N(C(=O)NCCCN2CCC(C(=O)OC)(c3ccccc3)CC2)C1c1ccc(C)cc1 (stereo not given) : 0.22
COC(=O)C1=C(C)NC(=O)N(C(=O)NCCCN2CCC(C(=O)OC)(c3ccccc3)CC2)C1c1ccc(Cl)cc1 (stereo not given) : 0.17
